Source: patent US12398154B2

- SYSTEM_NAME: KRas G13D (Homo sapiens, UniProt P01116, G13D)
- Construct: Biotinylated KRas (corresponding to amino acids 1-169, produced at Accelegan Inc.); biotin (biotinylated); purchased Accelegan Inc
- Sequence (P01116 1-169 isoform P01116-2 G13D): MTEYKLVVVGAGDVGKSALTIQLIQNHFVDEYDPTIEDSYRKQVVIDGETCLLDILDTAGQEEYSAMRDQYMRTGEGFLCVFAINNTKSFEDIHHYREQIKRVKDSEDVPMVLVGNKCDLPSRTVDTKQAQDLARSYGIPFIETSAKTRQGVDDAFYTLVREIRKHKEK
- METHOD_NOTES: KRas binding assay (TR-FRET displacement);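 also: One-hour room temperature incubation before TR-FRET reading, IC50 from a four-parameter curve fit to percent-of-control data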
REPORTED_PROPERTY: IC50

{"COMPOUND": "Fc1c(-c2cccc3cccc(F)c23)ncc2c(Nc3ccc4[nH]ncc4c3)nc(OCC34CCCN3CCC4)nc12", "REPORTED_PROPERTY": "IC50", "ENDPOINT_RESULT": "49300 nM"}
{"COMPOUND": "CCc1cccc2cccc(-c3ncc4c(NCc5c[nH]c6ncccc56)nc(OCC56CCCN5CCC6)nc4c3F)c12", "REPORTED_PROPERTY": "IC50", "ENDPOINT_RESULT": "69 nM"}
{"COMPOUND": "Nc1cc2n(n1)CCN(c1nc(OCC34CCCN3CCC4)nc3c(F)c(-c4cccc5cccc(F)c45)ncc13)C2", "REPORTED_PROPERTY": "IC50", "ENDPOINT_RESULT": "7290 nM"}
{"COMPOUND": "CNC(=O)c1cc2n(n1)CCCN(c1nc(OCC34CCCN3CCC4)nc3c(F)c(-c4cccc5cccc(F)c45)ncc13)C2", "REPORTED_PROPERTY": "IC50", "ENDPOINT_RESULT": "3300 nM"}
{"COMPOUND": "CCc1c(F)ccc2cc(O)cc(-c3ncc4c(NCc5c[nH]c6ncccc56)nc(OC[C@@]56CCCN5C[C@H](F)C6)nc4c3F)c12", "REPORTED_PROPERTY": "IC50", "ENDPOINT_RESULT": "3 nM"}
{"COMPOUND": "CC1(O)CCCN(c2nc(OCC34CCCN3CCC4)nc3c(F)c(-c4cccc5cccc(F)c45)ncc23)C1 (stereo not shown)", "REPORTED_PROPERTY": "IC50", "ENDPOINT_RESULT": "925 nM"}
{"COMPOUND": "C#Cc1c(F)ccc2cccc(-c3ncc4c(N5CCC[C@@](C)(O)C5)nc(OCC56CCCN5CCC6)nc4c3F)c12", "REPORTED_PROPERTY": "IC50", "ENDPOINT_RESULT": "61 nM"}

---

- SYSTEM_NAME: KRas G12A (Homo sapiens, UniProt P01116, G12A);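 also: binding to KRas measured by TR-FRET displacement after one hour at room temperature, IC50 from a four-parameter fit of percent-of-control values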
- Sequence (P01116 1-169 isoform P01116-2 G12A): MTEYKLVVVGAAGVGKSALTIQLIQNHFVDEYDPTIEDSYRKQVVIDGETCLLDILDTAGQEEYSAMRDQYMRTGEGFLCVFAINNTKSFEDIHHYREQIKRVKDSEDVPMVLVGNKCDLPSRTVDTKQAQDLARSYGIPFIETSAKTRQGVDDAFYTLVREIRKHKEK
- METHOD_NOTES: biochemical
pIC50: −log10 of the molar value.
Listing of entries alongside the reported pIC50.

{"MOLECULE": "O=C1NC(=O)C2(CCCN(c3nc(OCC45CCCN4CCC5)nc4c(F)c(-c5cccc6cccc(Cl)c56)ncc34)C2)N1 (stereo not shown) [Example 282]", "pIC50": 7.80}
{"MOLECULE": "OCC1CCCN(c2nc(OCC34CCCN3CCC4)nc3c(F)c(-c4cccc5cccc(F)c45)ncc23)C1 (stereo not shown) [Example 113]", "pIC50": 5.02}
{"MOLECULE": "O=C1NCC2(CCCN(c3nc(OCC45CCCN4CCC5)nc4c(F)c(-c5cccc6cccc(Cl)c56)ncc34)C2)N1 (stereo not shown) [Example 284]", "pIC50": 7.34}
{"MOLECULE": "Fc1c(-c2cccc3cccc(F)c23)ncc2c(NCCc3cnoc3)nc(OCC34CCCN3CCC4)nc12 [Example 219]", "pIC50": 4.79}
